I'd appreciate it if you could supply GI50 values for the items below.
- System: UO-31
- assay: NCI tumour cell line growth inhibition, 48 h
Active and inactive are the calls of the source. Cut-off read from the data, not from the text of the source: active = GI50 up to about 1.1 µM and inactive = higher.

[Q] Can you look up the measured GI50 of CC(=O)NN1C(=O)C(Cc2ccccc2)c2ccccc21 (centres undefined) for me?
[A] > 100 µM (inactive)

[Q] Proceed to `CC(C)CCc1c(Cl)nc(Cl)nc1Cl`
[A] 20.1 µM (inactive)

[Q] Proceed to CC[C@]1(c2ccc3c(c2)OCO3)C=[N+]([O-])O[C@H](OC2CCCC2(c2ccccc2)c2ccccc2)[C@@H]1OC(C)=O (some centres undefined)
[A] 2.05 µM (inactive)

[Q] Proceed to `Cc1cc(CN(Cc2ccccc2)Cc2nc3ccccc3[nH]2)c(O)c(CN(Cc2nc3ccccc3[nH]2)Cc2nc3ccccc3[nH]2)c1`
[A] 7.03 µM (inactive)

[Q] Proceed to `COc1ccc2c(c1)CC[C@@H]1[C@@H]2CC[C@]2(C)C(=O)/C(=C/c3ccncc3)C[C@@H]12`
[A] 37.2 µM (inactive)

[Q] Proceed to Cc1ccc(-n2c(Cn3nnc(-c4cccnc4)n3)nn(C3OC(COC(=O)c4ccccc4)C(OC(=O)c4ccccc4)C3OC(=O)c3ccccc3)c2=S)cc1 (centres undefined)
[A] > 100 µM (inactive)

[Q] Proceed to CC(C(=O)N1C(=O)N(C(=O)[C@H](C)C(O)c2ccccc2)[C@H](c2ccccc2)[C@H]1c1ccccc1)[C@@H](O)c1ccccc1 (some centres undefined)
[A] 31.5 µM (inactive)

[Q] Proceed to `COc1cc(Cc2nccc3cc(OC)c(OC)cc23)c(/N=N/N(C)C)cc1OC`
[A] 10 µM (inactive)

[Q] Proceed to CC(C)CC(NC(=O)C(CI)Cc1ccccc1)C(=O)Nc1ccccc1 (centres undefined)
[A] > 100 µM (inactive)

---

- System: A549
- assay: NCI tumour cell line growth inhibition, 48 h
Activity calls are given as the source filed them. Cut-off read from the data, not from the text of the source: active = GI50 up to about 1.1 µM and inactive = higher.
measure.name: GI50

[Q] API: value(readout=GI50, system=A549) for record `Nc1nc(Cl)cc(NCC2(O)CCCC2)n1`
[A] > 100 µM (inactive)

[Q] Proceed to Cc1ccc(S(=O)(=O)NNC2Oc3cc4c(cc3C(c3ccccc3O)C2C)OCO4)cc1 (stereo unspecified)
[A] 8.36 µM (inactive)

[Q] Proceed to `CS/C(=N/C(=O)c1ccccc1)SCCS/C(=N\C(=O)c1ccccc1)SC`
[A] > 100 µM (inactive)

[Q] Proceed to `Cc1ccc(O)c(Cc2nc3ccccc3nc2-c2cccc(Br)c2)c1`
[A] > 100 µM (inactive)

[Q] Proceed to Nc1cccc(OCC2CCCN3CCCCC23)c1 (stereo unspecified)
[A] 21.4 µM (inactive)

[Q] Proceed to `Cc1cccc2c(N)c3cccc(C(=O)NCC[N+](C)(C)Cc4ccc([N+](=O)[O-])n4C)c3nc12`
[A] 1.92 µM (inactive)

---

- System: T47D
- assay: NCI tumour cell line growth inhibition, 48 h
The source made the active and inactive calls. Cut-off read from the data, not from the text of the source: active = GI50 up to about 1.1 µM and inactive = higher.
I'd appreciate it if you could supply GI50 values for the items below.

[Q] API: value(readout=GI50, system=T47D) for record Cc1nn(C(=O)Cc2ccccc2)c2c1C(c1ccc(N(C)C)cc1)SC(=N)N2 (stereo unspecified)
[A] > 100 µM (inactive)

[Q] Proceed to Fc1cccc(F)c1C1SCc2nc3ccc(Cl)cc3n21 (stereo unspecified)
[A] 95.3 µM (inactive)

[Q] Proceed to `Brc1ccc2[nH]cc(-c3csc(-c4ccccn4)n3)c2c1`
[A] 10.7 µM (inactive)

[Q] Proceed to C/C=C1/CN2CCC34C(=C(C(=O)OC)C1CC23)Nc1ccc(O)cc14 (stereo unspecified)
[A] > 100 µM (inactive)

[Q] Proceed to O=S(=O)(O)C(c1ccccc1)C(O)c1ccccc1 (stereo unspecified)
[A] > 100 µM (inactive)

[Q] Proceed to COc1cc(C2SCCCCCCCCCCSC(c3ccc(O)c(OC)c3)SCCCCCCCCCCS2)ccc1O (stereo unspecified)
[A] > 100 µM (inactive)

[Q] Proceed to `COc1cc(-c2c(C#N)c(N)c(C#N)c3c2COc2ccccc2-3)cc(OC)c1OC`
[A] > 46.9 µM (inactive)

[Q] Proceed to CC1C(NNC(N)=O)Oc2cc3c(cc2C1c1ccccc1O)OCO3 (stereo unspecified)
[A] 38.6 µM (inactive)

[Q] Proceed to `c1ccc(CN2CCC3(CC2)SSC2(CCN(Cc4ccccc4)CC2)SS3)cc1`
[A] > 100 µM (inactive)

[Q] Proceed to Cc1coc2c1CC1OC1(C)CCC1OC1(C)C2 (stereo unspecified)
[A] > 100 µM (inactive)

[Q] Proceed to `CN(C)CCOC(=O)c1ccc(N)cc1`
[A] 58.5 µM (inactive)

These entries and their values trace back to ChEMBL document CHEMBL1201862.
